# Test system: NCI-H358 (ATCC-CRL5807) cells
# Test Name: Cell viability assay, G12C (NCI-H358)
# Type: cell-based, human
# Test Settings: Homo sapiens; KRAS cell viability, NCI-H358, 72 hrs, Cell Counting Kit-8
The entries below are paired with their reported IC50.
Experimental Readout: IC50 (nM)

[[record]]
compound = "CO[C@@H](C)c1ncc(N2CCOCC2)cc1-c1c2c3cc(c(F)cc3n1CC(F)(F)F)-c1csc(n1)C[C@H](NC(=O)[C@H](C(C)C)N1CCC3(CN(C(=O)[C@H](F)Cl)C3)C1=O)C(=O)N1CCC[C@H](N1)C(=O)OCC(C)(C)C2 (atropisomer, axis not shown; (M)) [Example 58]"
readout_relation = "="
recorded_result = 5

[[record]]
compound = "CCn1c(-c2cc(N3CCOCC3)cnc2[C@H](C)OC)c2c3cc(c(F)cc31)-c1csc(n1)C[C@H](NC(=O)[C@H](C(C)C)N(C)C(=O)[C@H]1CCN(C(=O)[C@H](F)Cl)C1)C(=O)N1CCC[C@H](N1)C(=O)OCC(C)(C)C2 (atropisomer, axis not shown; (M)) [Example 55]"
readout_relation = "<"
recorded_result = 3

[[record]]
compound = "CO[C@@H](C)c1ncc(N2CCN(CC(F)(F)F)CC2)cc1-c1c2c3cc(c(F)cc3n1CC(F)(F)F)-c1csc(n1)C[C@H](NC(=O)[C@H](C(C)C)N1CCCC3(CCN(C(=O)[C@H](F)Cl)CC3)C1=O)C(=O)N1CCC[C@H](N1)C(=O)OCC(C)(C)C2 (atropisomer, axis not shown; (M)) [Example 42]"
readout_relation = "<"
recorded_result = 1

[[record]]
compound = "CO[C@@H](C)c1ncc(N2CCN(C)CC2)cc1-c1c2c3cc(c(F)cc3n1CC(F)(F)F)-c1csc(n1)C[C@H](NC(=O)[C@H](C(C)C)N1CCC[C@]3(CCN(C(=O)[C@H](F)Cl)C3)C1=O)C(=O)N1CCC[C@H](N1)C(=O)OCC(C)(C)C2 (single isomer, unassigned) [Example 18]"
readout_relation = "="
recorded_result = 1

[[record]]
compound = "CO[C@@H](C)c1ncc(N2CCN(C)CC2)cc1-c1c2c3cc(c(F)cc3n1CC(F)(F)F)-c1csc(n1)C[C@H](NC(=O)[C@H](C(C)C)N1CCCC3(CCN(C(=O)[C@H](F)Cl)CC3)C1=O)C(=O)N1CCC[C@H](N1)C(=O)OCC(C)(C)C2 (atropisomer, axis not shown; (M)) [Example 6]"
readout_relation = "="
recorded_result = 1

[[record]]
compound = "CCn1c(-c2cc(N3CCN(C)CC3)cnc2[C@H](C)OC)c2c3cc(c(F)cc31)-c1csc(n1)C[C@H](NC(=O)[C@H](C(C)C)N1CCCC3(CCN(C(=O)[C@H](F)Cl)CC3)C1=O)C(=O)N1CCC[C@H](N1)C(=O)OCC(C)(C)C2 (atropisomer, axis not shown; (M)) [Example 36]"
readout_relation = "<"
recorded_result = 1

[[record]]
compound = "CCn1c(-c2cc(N3CCN(C)CC3)cnc2[C@H](C)OC)c2c3cc(c(F)cc31)-c1csc(n1)C[C@H](NC(=O)[C@@H](COC1CN(C(=O)[C@H](F)Cl)C1)C(C)C)C(=O)N1CCC[C@H](N1)C(=O)OCC(C)(C)C2 (atropisomer, axis not shown; (M)) [Example 40]"
readout_relation = "<"
recorded_result = 1


###

# Tested on: AGS (ATCC-CRL-1739) cells
# Test Name: Cell viability assay, G12D (AGS)
# Assay type: cell-based, human
# Test Settings: Homo sapiens, KRAS cell viability, 72 hrs, Cell Counting Kit-8
pIC50: −log10 of the molar value.
The entries below are paired with their reported pIC50.
Experimental Readout: pIC50

[[record]]
compound = "CO[C@@H](C)c1ncc(N2CCN(C)CC2)cc1-c1c2c3cc(c(F)cc3n1CC(F)(F)F)-c1csc(n1)C[C@H](NC(=O)[C@H](C(C)C)N1CCC3(CN(C(=O)[C@H](F)Cl)C3)C1=O)C(=O)N1CCC[C@H](N1)C(=O)OCC(C)(C)C2 (atropisomer, axis not shown)"
readout_relation = "="
recorded_result = 5.78

[[record]]
compound = "CO[C@@H](C)c1ncc(N2CCN(C)CC2)cc1-c1c2c3c(F)c(ccc3n1CC(F)(F)F)-c1csc(n1)C[C@H](NC(=O)[C@H](C(C)C)N(C)C(=O)[C@H]1CCN(C(=O)[C@H](F)Cl)C1)C(=O)N1CCC[C@H](N1)C(=O)OCC(C)(C)C2 (atropisomer, axis not shown; (M))"
readout_relation = "="
recorded_result = 6.41

[[record]]
compound = "CCn1c(-c2cc(N3CCN(C)CC3)cnc2[C@H](C)OC)c2c3cc(c(F)cc31)-c1csc(n1)C[C@H](NC(=O)[C@H](C(C)C)N(C)C(=O)C1(F)CCN(C(=O)[C@H](F)Cl)CC1)C(=O)N1CCC[C@H](N1)C(=O)OCC(C)(C)C2 (atropisomer, axis not shown; (M))"
readout_relation = "="
recorded_result = 7.37

[[record]]
compound = "CCn1c(-c2cc(N3CCN(CC(F)(F)F)CC3)cnc2[C@H](C)OC)c2c3cc(c(F)cc31)-c1csc(n1)C[C@H](NC(=O)[C@H](C(C)C)N1CCC3(CN(C(=O)[C@H](F)Cl)C3)C1=O)C(=O)N1CCC[C@H](N1)C(=O)OCC(C)(C)C2 (atropisomer, axis not shown; (M))"
readout_relation = "="
recorded_result = 6.80

[[record]]
compound = "CO[C@@H](C)c1ncc(N2CCN(C)CC2)cc1-c1c2c3cc(c(F)cc3n1CC(F)(F)F)-c1csc(n1)C[C@H](NC(=O)[C@H](C(C)C)N1CC[C@@]3(CCN(C(=O)[C@H](F)Cl)C3)C1=O)C(=O)N1CCC[C@H](N1)C(=O)OCC(C)(C)C2 (atropisomer, axis not shown; (M))"
readout_relation = "="
recorded_result = 5.89

[[record]]
compound = "CC(C)[C@@H](C(=O)N[C@H]1Cc2cc(O)cc(c2)-c2ccc3c(C(C)(C)C#N)cn(c3c2)CC(C)(C)COC(=O)[C@@H]2CCCN(N2)C1=O)N1CCC2(CN(C(=O)CCl)C2)C1=O [RM44, reference compound]"
readout_relation = "="
recorded_result = 5.21

[[record]]
compound = "CO[C@@H](C)c1ncc(N2CCN(CC(F)(F)F)CC2)cc1-c1c2c3cc(c(F)cc3n1CC(F)(F)F)-c1csc(n1)C[C@H](NC(=O)[C@H](C(C)C)N1CCC3(CCN(C(=O)[C@H](F)Cl)CC3)C1=O)C(=O)N1CCC[C@H](N1)C(=O)OCC(C)(C)C2 (atropisomer, axis not shown; (M))"
readout_relation = "<"
recorded_result = 5.30


###

# Tested on: phosphorylation of ERK, KRAS G12V in SW620
# Test Name: pERK inhibition assay, KRAS G12V
# Format: cell-based, human
# Test Settings: Homo sapiens, SW-620, SW620, 4 hours
Experimental Readout: IC50 (nM)

[[record]]
compound = "CO[C@@H](C)c1ncc(N2CCN(C)CC2)cc1-c1c2c3cc(c(C)cc3n1CC(F)(F)F)-c1csc(n1)C[C@H](NC(=O)[C@H](C(C)C)N(C)C(=O)C1(F)CCN(C(=O)[C@H](F)Cl)CC1)C(=O)N1CCC[C@H](N1)C(=O)OCC(C)(C)C2 (atropisomer, axis not shown; (M))"
target = "phosphorylation of ERK, KRAS G12V in SW620"
readout_relation = "="
recorded_result = 22

[[record]]
compound = "CO[C@@H](C)c1ncc(N2CCN(CC(F)(F)F)CC2)cc1-c1c2c3cc(c(F)cc3n1CC(F)(F)F)-c1csc(n1)C[C@H](NC(=O)[C@H](C(C)C)N1CCC3(CN(C(=O)[C@H](F)Cl)C3)C1=O)C(=O)N1CCC[C@H](N1)C(=O)OCC(C)(C)C2 (atropisomer, axis not shown; (M))"
target = "phosphorylation of ERK, KRAS G12V in SW620"
readout_relation = "="
recorded_result = 627

[[record]]
compound = "CO[C@@H](C)c1ncc(N2CCN(CC(F)(F)F)CC2)cc1-c1c2c3cc(c(F)cc3n1CC(F)(F)F)-c1csc(n1)C[C@H](NC(=O)[C@H](C(C)C)N(C)C(=O)C1(F)CCN(C(=O)[C@H](F)Cl)CC1)C(=O)N1CCC[C@H](N1)C(=O)OCC(C)(C)C2 (atropisomer, axis not shown; (M))"
target = "phosphorylation of ERK, KRAS G12V in SW620"
readout_relation = "="
recorded_result = 44

[[record]]
compound = "CO[C@@H](C)c1ncc(N2CCN(CC(F)(F)F)CC2)cc1-c1c2c3cc(c(F)cc3n1CC(F)(F)F)-c1csc(n1)C[C@H](NC(=O)[C@H](C(C)C)N1CCCC3(CCN(C(=O)[C@H](F)Cl)CC3)C1=O)C(=O)N1CCC[C@H](N1)C(=O)OCC(C)(C)C2 (atropisomer, axis not shown; (M))"
target = "phosphorylation of ERK, KRAS G12V in SW620"
readout_relation = "="
recorded_result = 24

[[record]]
compound = "CO[C@@H](C)c1ncc(N2CCN(C)CC2)cc1-c1c2c3cc(c(F)cc3n1CC(F)(F)F)-c1cc(O)cc(c1)C[C@H](NC(=O)[C@H](C(C)C)N(C)C(=O)[C@H]1CCN(C(=O)[C@H](F)Cl)C1)C(=O)N1CCC[C@H](N1)C(=O)OCC(C)(C)C2 (atropisomer, axis not shown; (M))"
target = "phosphorylation of ERK, KRAS G12V in SW620"
readout_relation = "="
recorded_result = 127

[[record]]
compound = "CCn1c(-c2cc(N3CCN(C)CC3)cnc2[C@H](C)OC)c2c3cc(c(F)cc31)-c1csc(n1)C[C@H](NC(=O)[C@H](C(C)C)N1CC[C@@]3(CCN(C(=O)[C@H](F)Cl)C3)C1=O)C(=O)N1CCC[C@H](N1)C(=O)OCC(C)(C)C2 (atropisomer, axis not shown; (M))"
target = "phosphorylation of ERK, KRAS G12V in SW620"
readout_relation = "="
recorded_result = 100

[[record]]
compound = "CO[C@@H](C)c1ncc(N2CCN(C)CC2)cc1-c1c2c3cc(c(F)cc3n1CC(F)(F)F)-c1csc(n1)C[C@H](NC(=O)[C@H](C(C)C)N1CCCC3(CCN(C(=O)[C@H](F)Cl)CC3)C1=O)C(=O)N1CCC[C@H](N1)C(=O)OCC(C)(C)C2 (atropisomer, axis not shown; (M))"
target = "phosphorylation of ERK, KRAS G12V in SW620"
readout_relation = "="
recorded_result = 24

[[record]]
compound = "CCn1c(-c2cc(N3CCN(C)CC3)cnc2[C@H](C)OC)c2c3cc(c(F)cc31)-c1csc(n1)C[C@H](NC(=O)[C@H](C(C)C)N1CCC3(CN(C(=O)[C@H](F)Cl)C3)C1=O)C(=O)N1CCC[C@H](N1)C(=O)OCC(C)(C)C2 (atropisomer, axis not shown; (M))"
target = "phosphorylation of ERK, KRAS G12V in SW620"
readout_relation = "="
recorded_result = 45

[[record]]
compound = "CC(C)[C@@H](C(=O)N[C@H]1Cc2cc(O)cc(c2)-c2ccc3c(C(C)(C)C#N)cn(c3c2)CC(C)(C)COC(=O)[C@@H]2CCCN(N2)C1=O)N1CCC2(CN(C(=O)[C@H](F)Cl)C2)C1=O [RM44-A, reference compound]"
target = "phosphorylation of ERK, KRAS G12V in SW620"
readout_relation = ">"
recorded_result = 10000

[[record]]
compound = "CO[C@@H](C)c1ncc(N2CCN(C)CC2)cc1-c1c2c3cc(c(F)cc3n1CC(F)(F)F)-c1csc(n1)C[C@H](NC(=O)[C@H](C(C)C)N1CCCC3(CN(C(=O)[C@H](F)Cl)C3)C1=O)C(=O)N1CCC[C@H](N1)C(=O)OCC(C)(C)C2 (atropisomer, axis not shown; (M))"
target = "phosphorylation of ERK, KRAS G12V in SW620"
readout_relation = "="
recorded_result = 22

[[record]]
compound = "CO[C@@H](C)c1ncc(N2CCN(C)CC2)cc1-c1c2c3c(F)c(ccc3n1CC(F)(F)F)-c1csc(n1)C[C@H](NC(=O)[C@H](C(C)C)N(C)C(=O)[C@H]1CCN(C(=O)[C@H](F)Cl)C1)C(=O)N1CCC[C@H](N1)C(=O)OCC(C)(C)C2 (atropisomer, axis not shown; (M))"
target = "phosphorylation of ERK, KRAS G12V in SW620"
readout_relation = "="
recorded_result = 55

[[record]]
compound = "CCn1c(-c2cc(N3CCN(C)CC3)cnc2[C@H](C)OC)c2c3cc(c(F)cc31)-c1csc(n1)C[C@H](NC(=O)[C@H](C(C)C)N1CC[C@]3(CCN(C(=O)[C@H](F)Cl)C3)C1=O)C(=O)N1CCC[C@H](N1)C(=O)OCC(C)(C)C2 (atropisomer, axis not shown; (M))"
target = "phosphorylation of ERK, KRAS G12V in SW620"
readout_relation = "="
recorded_result = 12

[[record]]
compound = "CCn1c(-c2cc(N3CCN(C)CC3)cnc2[C@H](C)OC)c2c3cc(c(F)cc31)-c1csc(n1)C[C@H](NC(=O)[C@H](C(C)C)N(C)C(=O)[C@H]1CCN(C(=O)[C@H](F)Cl)C1)C(=O)N1CCC[C@H](N1)C(=O)OCC(C)(C)C2 (atropisomer, axis not shown; (M))"
target = "phosphorylation of ERK, KRAS G12V in SW620"
readout_relation = "="
recorded_result = 21

